pIC50: −log10 of the molar value.
Consider the following pIC50 data for Prothrombin (Homo sapiens), collected from several reports.

INSERT INTO results (compound, value_reported) VALUES
  ('COc1ccc(C(=O)n2nc(C3CCNCC3)cc2NCc2ccc(Cl)s2)c(OC)c1', '5.00 to 6.00'),
  ('CCS(=O)(=O)NC(Cc1ccc(OC)cc1)C(=O)N1CCCC1C(=O)NC(CCCCN)C(=O)C(=O)N1CCC1 (centres unmarked)', 6.96),
  ('C=CC(=O)N1CCC[C@@H]1C(=O)N1CCC[C@H]1CCc1cc2ccc(C(=N)N)cc2n1CC', 8.00),
  ('CCC(C)[C@H](C(=O)N[C@@H](Cc1csc2ccccc12)C(=O)NCc1ccc(N)nc1)N(C)S(C)(=O)=O (some centres unmarked)', '< 5.00'),
  ('COc1ccccc1C(=O)n1nc(-c2cc(-c3cccnc3)c[nH]c2=O)cc1NCc1ccc(Cl)s1', '6.00 to 7.00'),
  ('N=C(N)c1ccc(CNC(=O)Cn2c(CCc3ccccc3)ccc(NS(=O)(=O)Cc3ccccc3)c2=O)cc1', 6.40),
  ('O=C(NCc1ccncc1)c1cc(NS(=O)(=O)Cc2ccccc2)ccc1Sc1ccccc1', '< 4.52'),
  ('Clc1ccc(CNc2cc(C3CCN(Cc4cnco4)CC3)n[nH]2)s1', '< 4.00'),
  ('CC(C)(CO)C(=O)n1nc(C2CCN(CC(=O)O)CC2)cc1NCc1ccc(Cl)s1', '6.00 to 7.00'),
  ('CN1CCC[C@@H]1C(=O)N[C@@H](Cc1cccc2ccccc12)C(=O)NCc1ccc(N)nc1', '< 5.00');

Req: API: value(readout= pIC50, system= Prothrombin (Homo sapiens), query= CC(C)OC(=O)C(=O)C(CCCCN)NC(=O)C1CCCN1C(=O)C(CC1CCCCC1)NS(=O)(=O)CC12CCC(CC1=O)C2(C)C (centres unmarked) )
Resp: 8.00

----------
pIC50: −log10 of the molar value.
Consider the following pIC50 data for Prothrombin (Homo sapiens, UniProt P00734), collected from several reports.

Guide cases for pIC50, answers given:
INSERT INTO results (compound, value_reported) VALUES
  ('Cc1ncc(CNc2ccc(-c3ccccc3S(=O)(=O)NC(C)(C)C)cc2)c(CO)c1O', '< 3.00'),
  ('Cc1ccccc1C(=O)n1nc(C2CCOCC2)nc1NCc1ccc(Cl)s1', '≥ 7.00'),
  ('CC(=N)N1CCC(Oc2ccc3c(ccc(=O)n3Cc3ccc(-c4ccc(C(=N)N)cc4)cc3)c2)CC1', 5.52),
  ('CC(=N)N1CCC(Oc2ccc(N(Cc3cc(C)nn3-c3cccc(C(=N)N)c3)S(C)(=O)=O)cc2)CC1', '< 4.96'),
  ('CC(C)Nc1ccc(-c2ccccc2Oc2ccccc2)c(CC(=O)NCc2ccc(C(=N)N)cc2)[n+]1[O-]', 4.06),
  ('CS(=O)(=O)N1CCNC(c2cc(NCc3ccc(Cl)s3)[nH]n2)C1 (centres unmarked)', '< 4.00');

Req: GET /values?readout=pIC50&item= Cc1cc(C(=O)NCc2ccc(CN)cc2)c(C)n1Cc1csc(-c2ccccc2)n1
Resp: < 4.40

Req: GET /values?readout=pIC50&item= CCn1c(CC[C@@H]2CCCN2C(=O)[C@H]2CCCN2CCCC(=O)O)cc2ccc(C(=N)N)cc21
Resp: 7.66

----------
pIC50: −log10 of the molar value.
Consider the following pIC50 data for Prothrombin (Homo sapiens, UniProt P00734), collected from several reports.

Guide cases for pIC50, answers given:
INSERT INTO measurements (smiles_input, target_entity, value_reported) VALUES
  ('COc1ccc(C(=O)n2nc(C3CCNCC3)c(F)c2NCc2ccc(Cl)s2)c(OC)c1', 'Prothrombin (Homo sapiens, UniProt P00734)', '> 7.00'),
  ('CN1CCC(C)(C(=O)n2nc(C3CCN(C(=O)N4CCOCC4)CC3)cc2NCc2ccc(Cl)s2)CC1', 'Prothrombin (Homo sapiens, UniProt P00734)', '6.00 to 7.00');

Req: GET /values?readout=pIC50&item= COC(=O)[C@H](CC(C)C)NC(=O)c1cccc2c(C(=N)N)cn(CC(=O)Nc3cccnc3)c12
Resp: 5.42

Req: GET /values?readout=pIC50&item= CCn1c(CC[C@@H]2CCCN2C(=O)[C@H]2CCCN2C(=O)C[C@H](N)C(=O)O)cc2ccc(C(=N)N)cc21
Resp: 8.28

----------
Consider the following IC50 data for Prothrombin (Homo sapiens, UniProt P00734), collected from several reports.
Your answer is read as µM, so omit the unit and give the number.

Guide cases for IC50, answers given:
INSERT INTO measurements (compound, assay_readout, value_reported) VALUES
  ('NC(=NO)c1ccc(CNC(=O)[C@@H]2CCc3cnc(NCCc4ccccn4)c(=O)n32)cc1', 'IC50', 0.31),
  ('C[C@H](N)C(=O)N[C@@H](Cc1ccccc1)C(=O)N[C@@H](CCCNC(=N)N)B1OC2C[C@@H]3C[C@@H](C3(C)C)[C@]2(C)O1 (stereo partly shown)', 'IC50', 6.4),
  ('O=C(C1CCN(c2ccncc2)CC1)N1CCN(S(=O)(=O)c2ccc3cc(Cl)ccc3c2)CC1', 'IC50', 34);

Read the next record carefully.
Req: API: value(readout= IC50, system= Prothrombin (Homo sapiens, UniProt P00734), query= CCn1c(CC[C@@H]2CCCN2C(=O)[C@H]2CCCN2C(C)=O)cc2ccc(C(=N)N)cc21 )
Resp: 0.0106

----------
Consider the following IC50 data for Prothrombin (Homo sapiens), collected from several reports.
Your answer is read as µM, so omit the unit and give the number.

INSERT INTO results (smiles_input, value_reported) VALUES
  ('CCn1c(CC[C@@H]2CCCN2C(=O)[C@H]2CCCN2S(C)(=O)=O)cc2ccc(C(=N)N)cc21', 0.00951),
  ('CCn1c(CC[C@@H]2CCCN2C(=O)[C@H]2CCCN2C(=O)CCNS(C)(=O)=O)cc2ccc(C(=N)N)cc21', 0.0055),
  ('Cc1ccc(NS(=O)(=O)Cc2ccccc2)c(=O)n1CC(=O)NCc1ccc(C(=N)N)cc1', 0.3);

Req: GET /values?readout=IC50&item= O=C(NC[C@H](NS(=O)(=O)c1cccc(N2CCCC2=O)c1Cl)C(=O)N1CCNCC1)c1ccc(Cl)s1
Resp: 0.658

----------
Consider the following IC50 data for Prothrombin (Homo sapiens, UniProt P00734), collected from several reports.

Req: GET /values?readout=IC50&item= CCn1c(CC[C@@H]2CCCN2C(=O)[C@H]2CCCN2C(=O)C[C@H](N)C(N)=O)cc2ccc(C(=N)N)cc21
Resp: 15.3 nM

Req: GET /values?readout=IC50&item= CC(C)(C)OC(=O)N1CCCC1c1cc(NCc2ccc(Cl)s2)[nH]n1 (centres unmarked)
Resp: > 100000 nM

Req: GET /values?readout=IC50&item= COc1ccccc1C(=O)n1nc(C2(C)CCNC2=O)cc1NCc1ccc(Cl)s1 (centres unmarked)
Resp: 100 to 1000 nM

Req: GET /values?readout=IC50&item= COC(=O)c1cccc(Oc2ccc([N+](=O)[O-])c(-n3cc(C(=N)N)c4ccccc43)c2)c1
Resp: 20200 nM

Req: GET /values?readout=IC50&item= CCc1c(N2CCOCC2=O)cccc1S(=O)(=O)N[C@@H](CNC(=O)c1ccc(Cl)s1)C(=O)N1CCO[C@H](C)C1
Resp: 55 nM

----------
Consider the following IC50 data for UniProtKB P00734, collected from several reports.
Rule: measured IC50 below 10000 nM gets true; anything equal to or greater than 10000 nM gets false.

Req: Strictly below 10000 nM in IC50? O=C(n1nc(C2CCOCC2)c(F)c1NCc1ccc(Cl)s1)C1(CO)CC1
Resp: true

Req: Strictly below 10000 nM in IC50? O=C(N1CCOCC1)N1CCC(c2cc(NCc3ccc(Cl)s3)n(C(=O)c3cscn3)n2)C1 (centres unmarked)
Resp: true

Req: Strictly below 10000 nM in IC50? CCOC(=O)[C@@H](N)CC(=O)N1CCC[C@@H]1C(=O)N1CCC[C@H]1CCc1cc2ccc(C(=N)N)cc2n1CC
Resp: true

----------
Consider the following IC50 data for Prothrombin (Homo sapiens, UniProt P00734), collected from several reports.

Guide cases for IC50, answers given:
INSERT INTO results (compound, assay_readout, value_reported) VALUES
  ('C=Cc1ccc(-c2ccc(C(=O)NC(CCC)CCC)cc2C(=O)O)c(C(=O)Nc2ccc(C(=N)N)cc2)c1', 'IC50', '> 1 µM'),
  ('CC(C)Nc1ccc(-c2ccccc2OCc2ccccc2)c(CC(=O)NCc2ccc(C(=N)N)cc2)[n+]1[O-]', 'IC50', '0.37 µM'),
  ('O=C(N1CCOCC1)N1CCC(c2cc(NCc3ccc(Cl)s3)[nH]n2)CC1', 'IC50', '> 100 µM'),
  ('O=C(Cn1ccc(-c2cc(NCc3ccc(Cl)s3)n(C(=O)c3ccoc3)n2)cc1=O)N1CCOCC1', 'IC50', '0.1 to 1 µM'),
  ('Clc1ccc(CNc2cc(C3CCN(Cc4nnn[nH]4)CC3)n[nH]2)s1', 'IC50', '1 to 10 µM'),
  ('CC(C)(C)OC(=O)N1CCC(c2n[nH]c(N)n2)CC1', 'IC50', '≥ 100 µM'),
  ('COc1ccccc1C(=O)n1nc(C2=C(O)CCCC2)nc1NCc1ccccc1', 'IC50', '≥ 100 µM'),
  ('O=C(c1ccc(N2CCOCC2)cc1)n1nc(C2CCOCC2)c(F)c1NCc1ccc(Cl)s1', 'IC50', '< 0.1 µM'),
  ('Cc1ncc(CNc2ccc(-c3ccccc3S(N)(=O)=O)cc2)c(CO)c1OCc1cccc(C(=N)N)c1', 'IC50', '862 µM'),
  ('CCn1c(CC[C@@H]2CCCN2C(=O)Cc2ccccc2C(=O)O)cc2ccc(C(=N)N)cc21', 'IC50', '0.00845 µM');

Req: API: value(readout= IC50, system= Prothrombin (Homo sapiens, UniProt P00734), query= O=C(c1ccsc1)n1nc(-c2ccn(CCN3CCOCC3)c(=O)c2)cc1NCc1ccc(Cl)s1 )
Resp: < 0.1 µM

Req: API: value(readout= IC50, system= Prothrombin (Homo sapiens, UniProt P00734), query= C[C@@H]1CCC[C@H](C)N1CCCCCn1c(=O)c(-c2cccc(C(=N)N)c2)nc2ccccc21 )
Resp: 2.96 µM

Req: API: value(readout= IC50, system= Prothrombin (Homo sapiens, UniProt P00734), query= O=C(c1ccoc1)n1nc(C2CCCN2)cc1NCc1ccc(Cl)s1 (centres unmarked) )
Resp: < 0.1 µM

Req: API: value(readout= IC50, system= Prothrombin (Homo sapiens, UniProt P00734), query= COc1ccccc1C(=O)n1nc(C2CCCN2C(=O)C(C)C)cc1NCc1ccc(Cl)s1 (centres unmarked) )
Resp: 0.1 to 1 µM

Req: API: value(readout= IC50, system= Prothrombin (Homo sapiens, UniProt P00734), query= N=C(N)c1ccc(CNC(=O)Cn2c(-c3cccc(C(=N)N)c3)c(Cl)nc(NC3CCC3)c2=O)cc1 )
Resp: 4.3 µM

Req: API: value(readout= IC50, system= Prothrombin (Homo sapiens, UniProt P00734), query= CC(C)(C)OC(=O)N1CCCC1c1n[nH]c(N)n1 (centres unmarked) )
Resp: ≥ 100 µM

Req: API: value(readout= IC50, system= Prothrombin (Homo sapiens, UniProt P00734), query= CC(=N)N1CCC(Oc2ccc3c(c2)OCC(=O)N3Cc2cccc(-c3cccc(C(=N)N)c3)c2)CC1 )
Resp: 11 µM

Req: API: value(readout= IC50, system= Prothrombin (Homo sapiens, UniProt P00734), query= Cc1ncc(CO)c(CNc2ccc(-c3ccccc3S(N)(=O)=O)cc2)c1OCc1cccc(C(=N)N)c1 )
Resp: > 1000 µM

Req: API: value(readout= IC50, system= Prothrombin (Homo sapiens, UniProt P00734), query= O=C(NC[C@H](NS(=O)(=O)c1cccc(N2CCOCC2=O)c1Cl)C(=O)N1CCCCCC1)c1ccc(Cl)s1 )
Resp: 0.049 µM

Req: API: value(readout= IC50, system= Prothrombin (Homo sapiens, UniProt P00734), query= CN(C)c1cccc2c(S(=O)(=O)Nc3ccc(C(=O)n4nc(-c5ccccc5)c(F)c4NCc4ccc(Cl)s4)cc3)cccc12 )
Resp: < 0.1 µM

Req: API: value(readout= IC50, system= Prothrombin (Homo sapiens, UniProt P00734), query= CC(C)(C)OC(=O)N1CCCC(c2cc(NCc3ccc(Cl)s3)n(C(=O)C(C)(C)CO)n2)C1 (centres unmarked) )
Resp: < 0.1 µM
